Positions of bridges follow the written chain, without caps; N, C: chain ends. Non-standard residues stand in square brackets, D forms with d. Residues, ends and D or L forms follow the SMILES beside them. S5 = C=CCCC[C@](C)(N)C(=O)O
readoutLabel: θ222 (mdeg)

{"compound": "CC[C@H](C)[C@@H]1NC(=O)[C@@](C)(NC(=O)[C@H](CCC(=O)O)NC(=O)[C@@H]2CCCN2C(=O)[C@H](CC(N)=O)NC(=O)[C@H](CCC(=O)O)NC(C)=O)CCCC=CCCC[C@@](C)(C(=O)N[C@@H](Cc2c[nH]cn2)C(=O)N[C@H](C(=O)N[C@@H](CCC(N)=O)C(=O)N[C@@H](CCCNC(=N)N)C(=O)N[C@H](C(=O)N[C@@H](CCSC)C(N)=O)C(C)C)C(C)C)NC(=O)[C@H](CC(=O)O)NC(=O)[C@H](CC(C)C)NC1=O [aStAx-3, reference compound] (Ac-ENPE[S5]ILD[S5]HVQRVM-NH2; staple 5-9)", "readoutLabel": "θ222", "obsValue": -16.2}

###

# maps each entry to its θ222

{"substance": "Ac-ENPESILDEHVQRVM-NH2", "θ222 [mdeg]": -4.29}
{"substance": "Ac-ENPEWILDKHVQRVM-NH2 [P6]", "θ222 [mdeg]": -5.94}
